The molecules below have reported pIC50 for human vanin-1 (Homo sapiens (Human), UniProt O95497).
pIC50: −log10 of the molar value.
quantityName: pIC50

>  <molecule>
O=C(c1cnc(NCCc2cncnc2)nc1)N1CCC2(CCOCC2)C1 [Example 181]

>  <limitQualifier>
=

>  <numericValue>
6.70

$$$$
>  <molecule>
CC(=O)NC1CCCN(C(=O)c2cnc(NCc3cccnc3)nc2)C1 (centres unmarked) [Example 23]

>  <limitQualifier>
=

>  <numericValue>
6.21

$$$$
>  <molecule>
O=C(c1cnc(NC2(c3cncnc3)CC2)nc1)N1CCC(O)(C(F)(F)F)CC1 [Example 90]

>  <limitQualifier>
=

>  <numericValue>
6.46

$$$$
>  <molecule>
CCC1(CC)CCN(C(=O)c2cnc(NC3(c4cncnc4)CC3)nc2)C1 [Example 37]

>  <limitQualifier>
=

>  <numericValue>
9.30

$$$$
>  <molecule>
O=C(c1cnc(NCc2cccnc2)nc1)N1CCC(F)(CO)CC1 [Example 17]

>  <limitQualifier>
=

>  <numericValue>
6.48

$$$$
>  <molecule>
CC(C)[C@H]1C[C@H](O)CN(C(=O)c2cnc(NC3(c4cncnc4)CC3)nc2)C1 [Example 72]

>  <limitQualifier>
=

>  <numericValue>
6.83

$$$$
>  <molecule>
O=C(c1cnc(NC2(c3cncnc3)CC2)nc1)N1CCCC1C(F)(F)F (centres unmarked) [Example 73]

>  <limitQualifier>
=

>  <numericValue>
6.08

$$$$
>  <molecule>
CCC1(C)CCN(C(=O)c2cnc(NC3(c4cncnc4)CC3)nc2)CC1 [Example 46]

>  <limitQualifier>
=

>  <numericValue>
8.20

$$$$
>  <molecule>
CC(C)(Nc1ncc(C(=O)N2CC3(CCOCC3)C2)cn1)c1cncnc1 [Example 144]

>  <limitQualifier>
=

>  <numericValue>
9.13

$$$$
>  <molecule>
C[C@H](Nc1ncc(C(=O)N2CC3(CCOCC3)C2)cn1)c1cnccn1 [Example 147]

>  <limitQualifier>
=

>  <numericValue>
9.19

$$$$
>  <molecule>
CS(=O)(=O)C1CCCN(C(=O)c2cnc(NC3(c4cncnc4)CC3)nc2)C1 (single isomer, unassigned) [Example 199]

>  <limitQualifier>
=

>  <numericValue>
5.93

$$$$
>  <molecule>
O=C(c1cnc(NCc2cncnc2)nc1)N1CCCCC1 [Example 187]

>  <limitQualifier>
=

>  <numericValue>
7.08

$$$$
>  <molecule>
C[C@@H](Nc1ncc(C(=O)N2CCC3(CCOCC3)C2)cn1)c1cncnc1 [Example 150]

>  <limitQualifier>
=

>  <numericValue>
7.56

$$$$
>  <molecule>
O=C(c1cnc(NC2(c3cncnc3)CC2)nc1)N1CCCC(CO)C1 (centres unmarked) [Example 106]

>  <limitQualifier>
=

>  <numericValue>
7.51

$$$$
>  <molecule>
CS(=O)(=O)C1CCCN(C(=O)c2cnc(NC3(c4cncnc4)CC3)nc2)C1 (single isomer, unassigned) [Example 200]

>  <limitQualifier>
=

>  <numericValue>
7.98

$$$$
>  <molecule>
CCN1CCC2(CCN(C(=O)c3cnc(N[C@@H](C)c4cnccn4)nc3)C2)C1 (some centres unmarked) [Example 117]

>  <limitQualifier>
=

>  <numericValue>
8.29

$$$$
>  <molecule>
C[C@@H](Nc1ncc(C(=O)N2CC3(CCOCC3)C2)cn1)c1cnccn1 [Example 148]

>  <limitQualifier>
=

>  <numericValue>
7.26

$$$$
>  <molecule>
O=C(c1cnc(NC2(c3cncnc3)CC2)nc1)N1CC2CCCC2C1 (centres unmarked) [Example 69]

>  <limitQualifier>
=

>  <numericValue>
8.73

$$$$
>  <molecule>
O=C(c1cnc(NCc2cccnc2)nc1)N1CC2CCC(CC2)C1 [Example 27]

>  <limitQualifier>
=

>  <numericValue>
5.86

$$$$
>  <molecule>
O=C(c1cnc(NCc2cnccn2)nc1)N1CCN2CCC[C@@H]2C1 [Example 128]

>  <limitQualifier>
=

>  <numericValue>
6.42

$$$$
>  <molecule>
Cc1cnc(C(C)(C)Nc2ncc(C(=O)N3CC4(CCOCC4)C3)cn2)cn1 [Example 180]

>  <limitQualifier>
=

>  <numericValue>
9.71

$$$$
>  <molecule>
O=C(c1cnc(NC2(c3cncnc3)CC2)nc1)N1C2CCC1COC2 [Example 97]

>  <limitQualifier>
=

>  <numericValue>
6.46

$$$$
>  <molecule>
Cc1ccc([C@@H](C)Nc2ncc(C(=O)N3CCC4(CCOCC4)C3)cn2)cn1 [Example 141]

>  <limitQualifier>
=

>  <numericValue>
7.06

$$$$
>  <molecule>
Cc1ccc(CNc2ncc(C(=O)N3CC4(CCOCC4)C3)cn2)cn1 [Example 172]

>  <limitQualifier>
=

>  <numericValue>
8.34

$$$$
>  <molecule>
O=C(c1cnc(NC2(c3ccccn3)CC2)nc1)N1CCC2(CCOCC2)C1 [Example 177]

>  <limitQualifier>
=

>  <numericValue>
9.26

$$$$
>  <molecule>
Cc1ccc([C@H](C)Nc2ncc(C(=O)N3CCC4(CCOCC4)C3)cn2)cn1 [Example 140]

>  <limitQualifier>
=

>  <numericValue>
9.55

$$$$
>  <molecule>
O=C(c1cnc(NCc2cccnc2)nc1)N1CCCC2(COC2)C1 [Example 31]

>  <limitQualifier>
=

>  <numericValue>
5.51

$$$$
>  <molecule>
O=C(c1cnc(NC2(c3cnccn3)CCC2)nc1)N1CC2(CCOCC2)C1 [Example 138]

>  <limitQualifier>
=

>  <numericValue>
10.37

$$$$
>  <molecule>
O=C(c1cnc(NC2(c3cncnc3)CC2)nc1)N1CCC(C(F)(F)F)CC1 [Example 63]

>  <limitQualifier>
=

>  <numericValue>
6.38

$$$$
>  <molecule>
C[C@H](Nc1ncc(C(=O)N2C[C@H](O)[C@@H](N3CCOCC3)C2)cn1)c1cnccn1 [Example 113]

>  <limitQualifier>
=

>  <numericValue>
6.29

$$$$
>  <molecule>
CN1C[C@@H]2C[C@H]1CN2C(=O)c1cnc(NCc2cnccn2)nc1 [Example 112]

>  <limitQualifier>
<

>  <numericValue>
4.72

$$$$
>  <molecule>
CC(C)(Nc1ncc(C(=O)N2CCC3(CCOCC3)C2)cn1)c1cnccn1 [Example 182]

>  <limitQualifier>
=

>  <numericValue>
10.21

$$$$
>  <molecule>
O=C(c1cnc(NCc2cccnc2)nc1)N1CCC(O)CC1 [Example 21]

>  <limitQualifier>
=

>  <numericValue>
6.28

$$$$
>  <molecule>
Cc1ccc(C2(Nc3ncc(C(=O)N4CCC5(CCOCC5)C4)cn3)CC2)cn1 [Example 175]

>  <limitQualifier>
=

>  <numericValue>
9.62

$$$$
>  <molecule>
C[C@H](Nc1ncc(C(=O)N2CCN3CCC[C@H]3C2)cn1)c1cnccn1 [Example 125]

>  <limitQualifier>
=

>  <numericValue>
8.52

$$$$

###

# targetDesc: human vanin-1 (Homo sapiens (Human), UniProt O95497)
# Sequence (O95497 22-491): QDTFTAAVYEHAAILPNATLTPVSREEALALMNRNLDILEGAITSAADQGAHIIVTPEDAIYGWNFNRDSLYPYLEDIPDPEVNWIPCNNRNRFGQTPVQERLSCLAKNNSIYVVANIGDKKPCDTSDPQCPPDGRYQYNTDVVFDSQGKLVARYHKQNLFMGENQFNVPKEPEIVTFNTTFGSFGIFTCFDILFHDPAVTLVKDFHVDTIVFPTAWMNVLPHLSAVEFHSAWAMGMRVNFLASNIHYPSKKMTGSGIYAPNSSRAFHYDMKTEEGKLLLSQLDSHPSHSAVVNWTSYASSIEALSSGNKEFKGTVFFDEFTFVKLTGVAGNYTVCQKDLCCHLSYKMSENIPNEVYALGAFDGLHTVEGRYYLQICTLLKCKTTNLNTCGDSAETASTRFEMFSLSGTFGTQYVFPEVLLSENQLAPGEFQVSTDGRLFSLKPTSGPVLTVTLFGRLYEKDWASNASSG
pIC50: −log10 of the molar value.
Reported pIC50 values are given for each entry in this list.

>  <molecule>
C[C@@H]1CN(C(=O)c2cnc(NC3(c4cncnc4)CC3)nc2)C[C@H](C)O1 [Example 67]

>  <limitQualifier>
=

>  <pIC50>
5.37

$$$$
>  <molecule>
Cc1cnc(CNc2ncc(C(=O)N3CC4(CCOCC4)C3)cn2)cn1 [Example 165]

>  <limitQualifier>
=

>  <pIC50>
7.58

$$$$
>  <molecule>
O=C(c1cnc(NC2(c3cncnc3)CC2)nc1)N1CCC2(CCOCC2)C1 [Example 188]

>  <limitQualifier>
=

>  <pIC50>
9.56

$$$$
>  <molecule>
CC(C)(Nc1ncc(C(=O)N2CC3(CCOCC3)C2)cn1)c1cnccn1 [Example 131]

>  <limitQualifier>
>

>  <pIC50>
10.03

$$$$
>  <molecule>
O=C(c1cnc(NCc2cccnc2)nc1)N1Cc2ccccc2C1 [Example 19]

>  <limitQualifier>
=

>  <pIC50>
6.39

$$$$
>  <molecule>
C[C@H](Nc1ncc(C(=O)N2CCN3C[C@@H](F)C[C@H]3C2)cn1)c1cnccn1 [Example 121]

>  <limitQualifier>
=

>  <pIC50>
8.40

$$$$

###

pIC50: −log10 of the molar value.
Quick record: pIC50, human vanin-1 (Homo sapiens (Human), UniProt O95497).

>  <molecule>
C[C@@H]1CN(C(=O)c2cnc(NC3(c4cncnc4)CC3)nc2)[C@H](C)CO1

>  <pIC50>
6.93

$$$$
>  <molecule>
O=C(c1cnc(NC2(c3cncnc3)CC2)nc1)N1CC2(CC(O)C2)C1

>  <pIC50>
7.39

$$$$
>  <molecule>
Cc1nc(NC2(c3cncnc3)CC2)ncc1C(=O)N1CCC2(CCOCC2)C1

>  <pIC50>
5.63

$$$$
>  <molecule>
O=C(c1cnc(NCc2cncnc2C(F)(F)F)nc1)N1CC2(CCOCC2)C1

>  <pIC50>
7.24

$$$$
>  <molecule>
C[C@@H](Nc1ncc(C(=O)N2CCC3(CCOCC3)C2)cn1)c1ccncn1

>  <pIC50>
6.08

$$$$
>  <molecule>
Cc1ncc(CNc2ncc(C(=O)N3CC4(CCOCC4)C3)cn2)cn1

>  <pIC50>
8.13

$$$$
>  <molecule>
COCC1CCCN(C(=O)c2cnc(NC3(c4cncnc4)CC3)nc2)C1 (stereo not drawn)

>  <pIC50>
8.27

$$$$
>  <molecule>
CC(Nc1ncc(C(=O)N2CC3(CCOCC3)C2)cn1)c1cncnc1 (stereo not drawn)

>  <pIC50>
8.84

$$$$
>  <molecule>
O=C(c1cnc(NC2(c3cncnc3)CC2)nc1)N1C[C@H](O)C[C@H](C2CC2)C1

>  <pIC50>
7.54

$$$$
>  <molecule>
O=C(c1cnc(NCc2cncnc2)nc1)N1CC2(CCOCC2)C1

>  <pIC50>
8.26

$$$$
>  <molecule>
C[C@H]1CN(C(=O)c2cnc(NC3(c4cncnc4)CC3)nc2)CCO1

>  <pIC50>
7.41

$$$$
>  <molecule>
CO[C@@H]1[C@@H]2CC[C@H]1CN(C(=O)c1cnc(NCc3cccnc3)nc1)C2

>  <pIC50>
7.03

$$$$
>  <molecule>
O=C(c1cnc(NC2(c3cncnc3)CC2)nc1)N1CCCC(C(F)(F)F)C1 (stereo not drawn)

>  <pIC50>
8.44

$$$$
>  <molecule>
C[C@H]1CCCN1C(=O)c1cnc(NC2(c3cncnc3)CC2)nc1

>  <pIC50>
7.53

$$$$
>  <molecule>
O=C(c1cnc(NC2(c3cncnc3)CC2)nc1)N1CCOC2(CCCC2)C1

>  <pIC50>
7.22

$$$$
>  <molecule>
O=C(c1cnc(NC2(c3cncnc3)CC2)nc1)N1CCC(C2(O)CCCC2)CC1

>  <pIC50>
5.87

$$$$
>  <molecule>
C[C@@H]1CN(C(=O)c2cnc(NC3(c4cncnc4)CC3)nc2)CCO1

>  <pIC50>
6.23

$$$$
>  <molecule>
O=C(c1cnc(NC2(c3cncnc3)CC2)nc1)N1CCCC[C@@H]1CO

>  <pIC50>
6.83

$$$$
